targetOfAssay: KCNJ5^L168R (Homo sapiens, UniProt P48544, L168R)
Sequence (P48544 1-419 L168R): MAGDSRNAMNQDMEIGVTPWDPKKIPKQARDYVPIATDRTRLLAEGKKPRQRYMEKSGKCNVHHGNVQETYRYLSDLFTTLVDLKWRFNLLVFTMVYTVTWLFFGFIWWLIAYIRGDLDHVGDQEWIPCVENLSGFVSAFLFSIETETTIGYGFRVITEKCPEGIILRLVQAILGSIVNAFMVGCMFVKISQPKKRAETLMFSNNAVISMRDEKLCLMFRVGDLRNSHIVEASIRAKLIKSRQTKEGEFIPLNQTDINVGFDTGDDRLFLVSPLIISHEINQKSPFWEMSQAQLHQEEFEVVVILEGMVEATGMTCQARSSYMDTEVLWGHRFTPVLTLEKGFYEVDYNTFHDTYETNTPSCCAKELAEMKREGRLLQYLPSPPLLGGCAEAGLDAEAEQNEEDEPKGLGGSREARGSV
method: Cell viability assay (ATP, CellTiter-Glo): rescue of KCNJ5^L168R-induced lethality in inducible HEK293 cells
measurementSetup: 10-point dilution 20 to 0.0391 μM, N=3, four-parameter fit
measureName: IC50 (µM)
Answer with a number only, understood to be in µM.

In the examples that follow, each entry is paired with its recorded IC50.
CC[C@H]1OC(=O)[C@H](C)[C@@H](O[C@H]2C[C@@](C)(OC)[C@@H](O)[C@H](C)O2)[C@H](C)[C@@H](O[C@@H]2O[C@H](C)C[C@H](N(C)C)[C@H]2O)[C@](C)(O)C[C@@H](C)C(=O)[C@H](C)[C@@H](O)[C@H]1C [Erythromycin B, erythromycin B]: 4.73
CC[C@H]1OC(=O)[C@H](C)[C@@H](O[C@H]2C[C@@](C)(OC)[C@@H](O)[C@H](C)O2)[C@H](C)[C@@H](O[C@@H]2O[C@H](C)C[C@H](N(C)C)[C@H]2O)[C@](C)(OC)C[C@@H](C)C(=O)[C@H](C)[C@@H](O)[C@]1(C)O [Clarithromycin, clarithromycin]: 1.72

// query Recorded IC50 of CC[C@H]1OC(=O)[C@H](C)[C@@H](O[C@H]2C[C@@](C)(OC)[C@@H](O)[C@H](C)O2)[C@H](C)[C@@H](O[C@@H]2O[C@H](C)C[C@H](N(C)C)[C@H]2O)[C@](C)(O)C[C@@H](C)C(=O)[C@H](C)[C@@H](O)[C@]1(C)O [Erythromycin, erythromycin] , please.
// result 11.8

// query Quick one: CC[C@H]1OC(=O)[C@H](C)[C@@H](O[C@H]2C[C@@](C)(OC)[C@@H](O)[C@H](C)O2)[C@H](C)[C@@H](O[C@@H]2O[C@H](C)C[C@H](N(C)C)[C@H]2O)[C@](C)(O)C[C@@H](C)CN(C)[C@H](C)[C@@H](O)[C@]1(C)O [Azithromycin, azithromycin]
// result 8.05

* * *

targetOfAssay: KCNJ5^G151R (Homo sapiens, UniProt P48544, G151R)
Construct: expressed in transfected cells
method: cell-based
Assay type: cell-based
measurementSetup: 10-point dilution 20 to 0.0391 μM, N=3, four-parameter fit
Here, each record is paired with measured G151R maximum inhibition data.
Answer with a number only, understood to be in %.

In the examples that follow, each entry is paired with its recorded G151R maximum inhibition.
CC[C@H]1OC(=O)[C@H](C)[C@@H](O[C@H]2C[C@@](C)(OC)[C@@H](O)[C@H](C)O2)[C@H](C)[C@@H](O[C@@H]2O[C@H](C)C[C@H](N(C)C)[C@H]2O)[C@](C)(O)C[C@@H](C)CN(C)[C@H](C)[C@@H](O)[C@]1(C)O: 32.00
CC[C@H]1OC(=O)[C@H](C)[C@@H](O[C@H]2C[C@@](C)(OC)[C@@H](O)[C@H](C)O2)[C@H](C)[C@@H](O[C@@H]2O[C@H](C)C[C@H](N(C)C)[C@H]2O)[C@](C)(O)C[C@@H](C)C(=O)[C@H](C)[C@@H](O)[C@]1(C)O: 90.00

Lab note: next compound to report on.
// query Recorded G151R maximum inhibition of `CC[C@H]1OC(=O)[C@H](C)[C@@H](O[C@H]2C[C@@](C)(OC)[C@@H](O)[C@H](C)O2)[C@H](C)[C@@H](O[C@@H]2O[C@H](C)C[C@H](NC)[C@H]2O)[C@](C)(O)C[C@@H](C)/C(=N\OCOCCOC)[C@H](C)[C@@H](O)[C@]1(C)O` , please.
// result 96.20

Origin of the recorded values: patent US11484543B2
